System: NCI/ADR-RES ovarian
PROTOCOL_TEXT: NCI-60 one-dose screen, 48 h
CONDITIONS_USED: 10 µM unless noted
Experimental: Growth inhibition of the NCI/ADR-RES human […] tumor cell line is measured as a screen for anti-cancer activity. Cells are grown in 96 well plates and exposed to the test compound for 48 hours. Compounds are tested at a single concentration, which is 10^-5 M for most compounds. The reported endpoint is percent growth (GI% or GIPRCNT), where numbers from 0 - 100% represent growth inhibition, and numbers from -100% - 0 represent cell death. For example, a value of 40 represents 60% growth inhibition. […]
This is part of a sample that, as a whole, favours compounds with a hit. Of some 83,000 tested, about 20% had one in any assay. Active and inactive are the calls of the source. Rule for the calls: active = growth percent below 10; inactive = the rest.
Answer with one of the outcomes given here: 1 (active), -1 (inactive)

- MOLECULE: "N#CC1c2ccccc2-c2ccccc2N1C(=O)c1ccccc1 (stereo unspecified)"
  TESTED_TARGET: "NCI/ADR-RES ovarian"
  QUALITATIVE_LABEL: 1
- MOLECULE: "Cc1csc(-c2ccc3c(c2)COC3(CCCN(C)C)c2ccc(F)cc2)c1 (stereo unspecified)"
  TESTED_TARGET: "NCI/ADR-RES ovarian"
  QUALITATIVE_LABEL: -1
- MOLECULE: "N#CC1=C(N)Oc2c(c(N)nn2-c2ccccc2)C1c1ccc(Cl)cc1 (stereo unspecified)"
  TESTED_TARGET: "NCI/ADR-RES ovarian"
  QUALITATIVE_LABEL: -1
- MOLECULE: "Cc1ccc(-c2ccc(/C=C(\\C#N)c3nc(-c4ccco4)cs3)o2)cc1"
  TESTED_TARGET: "NCI/ADR-RES ovarian"
  QUALITATIVE_LABEL: -1
- MOLECULE: "CCC1C(=O)COC1=O (stereo unspecified)"
  TESTED_TARGET: "NCI/ADR-RES ovarian"
  QUALITATIVE_LABEL: -1

What classification did Nc1c(C(=O)Nc2cccc3ccccc23)sc2nc3c(cc12)CCCC3 end up with in this test?
1

* * *

System: HCT-116 colon
PROTOCOL_TEXT: NCI-60 one-dose screen, 48 h
CONDITIONS_USED: 10 µM unless noted
This is part of a sample that, as a whole, favours compounds with a hit. Of some 83,000 tested, about 20% had one in any assay. Calls of active or inactive are those of the source. Rule for the calls: active = growth percent below 10; inactive = the rest.
Answer with one of the outcomes given here: active, inactive

Solved entries:
- SMILES: "N=C(N)c1ccc(-c2ccc(-c3cc(F)cc(F)c3)o2)nc1"
  QUALITATIVE_LABEL: "inactive"
- SMILES: "CC/C=C\\C[C@H]1CC=C2C(=O)C=C[C@@H]2CC=CCCCC(=O)O[C@@H](CCCCC)CC=C2C(=O)C=C[C@@H]2CC=CCCCC(=O)O[C@@H](CCCCC)CC=C2C(=O)C=C[C@@H]2CC=CCCCC(=O)O[C@@H](CCCCC)CC=C2C(=O)C=C[C@@H]2CC=CCCCC(=O)O1"
  QUALITATIVE_LABEL: "active"
- SMILES: "COc1cc2c(cc1-c1c(C)noc1C)ncc1nc(C3CCCCC3)n([C@@H](C)COC(F)F)c12"
  QUALITATIVE_LABEL: "inactive"

What classification did Cc1ccc(-c2nn(Cc3cn(-c4cc(C)nc5ccccc45)nn3)c3ncnc(N)c23)cc1 end up with in this test?
inactive

Follow-up item: Cc1ccc2[nH]cc(-c3nc(-c4cn(C)c5ncccc45)cs3)c2c1
inactive

Follow-up item: Fc1ccc2c(c1)c(-c1nc(-c3c[nH]c4ncccc34)cs1)cn2CCCN1CCCCC1
inactive

Follow-up item: O=C(N/N=C\c1ccccc1O)C1CC1
inactive

Follow-up item: O=c1[nH]c(=S)[nH]c2nc[nH]c12
inactive
